Test system: Mesenchymal stem cells
Experiment: Induction of adipogenesis differentiation in human Mesenchymal stem cells at 1 uM incubated for 21 days by […] staining-based microscopic analysis
Assay type: functional, cell-based
Settings: time 21.0 day
Activity calls are given as the source filed them. The calls are words filed in the database; no cut-off is given here.
Field 'call' accepts 1 for active, -1 for inactive

compound_string=Cc1cc(SCc2sc(-c3ccc(C(F)(F)F)c(F)c3)nc2C)ccc1OCC(=O)O label_class=-1

Which outcome was assigned to Cc1nc(-c2ccc(C(F)(F)F)c(F)c2)sc1COc1ccc(/C=C/C(=O)O)cc1 in this test? -1

Which outcome was assigned to Cc1nc(-c2ccc(C(F)(F)F)cc2)sc1CNc1ccc(/C=C/C(=O)O)cc1 in this test? -1

Which outcome was assigned to COC(=O)/C=C/c1ccc(OCc2sc(-c3ccc(C(F)(F)F)cc3)nc2C)cc1 in this test? 1

Which outcome was assigned to Cc1nc(-c2ccc(C(F)(F)F)cc2)sc1CN(c1ccc(/C=C/C(=O)O)cc1)C(C)C in this test? -1

Which outcome was assigned to Cc1nn(-c2ccc(C(F)(F)F)cc2)nc1CN(C)c1ccc(/C=C/C(=O)O)cc1 in this test? -1

Which outcome was assigned to Cc1nc(-c2cccc(C(F)(F)F)c2)sc1COc1ccc(/C=C/C(=O)O)cc1 in this test? 1

Which outcome was assigned to Cc1nc(-c2ccc(C(F)(F)F)cc2)sc1CSc1ccc(/C=C/C(=O)O)cc1 in this test? -1

Entry source: ChEMBL document CHEMBL5032493
